- System: diabetic (ob/ob) mice
- experiment: Blood glucose lowering activity in diabetic (ob/ob) mice
- Assay type: in vivo
- test-conditions: Mus musculus, po, suffix a = no significant activity at this dose, read-out: % Change Insulin from Vehicle
Consider the following compounds; for each one, report its change in vivo at 100 mg/kg.
Give bare numbers, in %.

| compound | recorded-result |
| --- | --- |
| CC1(COc2ccc(CC3SC(=O)NC3=O)cc2)CCCCC1 (stereo not shown) [Ciglitazone, reference compound] | -39 |
| O=C(O)COc1c(Br)cc(C(=O)c2c(Cc3ccccc3)sc3ccccc23)cc1Br [Example 12] | -60.7 |
| CCCCc1oc2ccccc2c1Cc1cc(Br)c(OCC(=O)O)c(Br)c1 [Example 7] | -13.1 |

// below: change in vivo at 100 mg/kg requested for another compound
The compound CCCCc1oc2ccccc2c1C(=O)c1cc(Br)c(O)c(Br)c1 [Example 6] showed change in vivo at 100 mg/kg equal to -70.4
